assay.target: hGPR120 (Homo sapiens)
Construct: expressed in transfected cells; host or cells: CHO-K1
Sequence (Q5NUL3 whole entry): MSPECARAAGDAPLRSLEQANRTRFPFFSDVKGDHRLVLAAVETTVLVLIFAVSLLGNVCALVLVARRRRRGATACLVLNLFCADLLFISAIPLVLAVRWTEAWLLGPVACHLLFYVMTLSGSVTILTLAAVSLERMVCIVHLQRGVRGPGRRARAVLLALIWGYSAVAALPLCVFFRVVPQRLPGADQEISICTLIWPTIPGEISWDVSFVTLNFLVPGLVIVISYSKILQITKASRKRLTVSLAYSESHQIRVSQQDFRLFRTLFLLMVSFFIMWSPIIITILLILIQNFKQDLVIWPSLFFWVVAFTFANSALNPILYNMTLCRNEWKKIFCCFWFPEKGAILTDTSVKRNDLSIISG
protocol.description: Measurement of activity of GPR120 agonist (cell-based calcium fluorescence assay)
condition.notes: CHO-K1 cells expressing Ga16 and hGPR120, Calcium 5 dye fluorescence; activity class; read-out: EC50
readout: EC50

Worked examples follow.
- O=C(O)CCCOc1c(F)cc(-c2cc(F)ccc2NC2CCCC2)cc1F: < 200 nM
- O=C(O)CCCSc1c(F)cc(-c2cccnc2OCC2CCC2)cc1F: < 200 nM
- CCCOc1cccc(-c2ccc(SCCCC(=O)O)cc2)c1: < 200 nM
- CC(C)Nc1cccc(-c2cc(F)c(OCCCC(=O)O)c(F)c2)n1: 200 to 2000 nM

Now, please, on to the next compound.
## Task Look at this compound and give its reported EC50. CC(C)Oc1ncccc1-c1ccc(SCCCC(=O)O)c(F)c1
## Result < 200 nM
